// data source = paper PMC5540273

Tested on: MAST1;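 note: KINOMEscan kinase panel screen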
Settings: concentration: 1 μM, replicates: in singlicate; n = 1

{"COMPOUND": "Cn1cc(-c2cnc(N)c3c(-c4ccc5c(c4)CCN5C(=O)Cc4ccccc4)csc23)cn1 [GSK2593074]", "UNITS_SYMBOL": "%", "%Inh": 25}
{"COMPOUND": "COc1cc(Nc2ccnc3cc(-c4ccncc4)ccc23)cc(OC)c1OC.Cl [GW494610]", "UNITS_SYMBOL": "%", "%Inh": 15}
{"COMPOUND": "CN(C)c1ncnc2nc[nH]c12 [SKF-31736]", "UNITS_SYMBOL": "%", "%Inh": 49}
{"COMPOUND": "Cl.N#CCc1ccc(Nc2nccc(Nc3ccc(Oc4ccccc4)cc3)n2)cc1 [GW639905]", "UNITS_SYMBOL": "%", "%Inh": 0}
{"COMPOUND": "COc1cccc(NC(=O)NCCNc2ccnc(Nc3ccc(F)cc3)n2)c1 [GSK1379879]", "UNITS_SYMBOL": "%", "%Inh": 0}
{"COMPOUND": "Cn1cc(-c2ccc3c(c2)CCN3C(=O)Cc2cc(F)cc(C(F)(F)F)c2)c2c(N)ncnc21 [GSK2635225]", "UNITS_SYMBOL": "%", "%Inh": 0}
{"COMPOUND": "CN(c1ccc(F)c(NC(=O)c2cccc(OC(C)(C)C#N)c2Cl)c1)c1ccc2nc(NC(=O)C3CC3)sc2n1", "UNITS_SYMBOL": "%", "%Inh": 40}
{"COMPOUND": "Fc1cc(Cl)ccc1Nc1ccnc2cc(-c3ccc(CN4CCSCC4)o3)ccc12 [GW560106]", "UNITS_SYMBOL": "%", "%Inh": 34}
{"COMPOUND": "CC(C)NCC(Cc1ccccc1)NC(=O)c1cc(Br)c(-c2ccnc3[nH]ccc23)s1.Cl.Cl (stereo not drawn) [GSK1383281]", "UNITS_SYMBOL": "%", "%Inh": 0}
{"COMPOUND": "COc1cccc(CC(=O)N2CCc3cc(-c4cn(C)c5ncnc(N)c45)ccc32)c1 [GSK2608899]", "UNITS_SYMBOL": "%", "%Inh": 0}
{"COMPOUND": "CN(c1ccc(NC(=O)Nc2cccc(Cl)c2)cc1)c1ccnc(N)n1.Cl [GW830707]", "UNITS_SYMBOL": "%", "%Inh": 84}
{"COMPOUND": "CNc1nccc(-c2ccc3c(N)n[nH]c3c2)n1 [GSK2206003]", "UNITS_SYMBOL": "%", "%Inh": 0}
{"COMPOUND": "COc1cccc2c(-c3ccncc3)c(-c3ccc(F)cc3)nn12 [GW468513]", "UNITS_SYMBOL": "%", "%Inh": 15}
{"COMPOUND": "CCOc1nccc(-c2c(-c3ccc(F)cc3)ncn2C2CCNCC2)n1 [SB-249175]", "UNITS_SYMBOL": "%", "%Inh": 0}
{"COMPOUND": "Cc1ccc(C)c(NC(=O)Nc2ccc(C)c(-c3ccc(C(=O)Nc4ccncc4)cc3)c2)c1 [GSK1398473]", "UNITS_SYMBOL": "%", "%Inh": 0}
{"COMPOUND": "COc1ccc(C)c(Nc2ccnc(Nc3ccc(-c4cnc[nH]4)cc3)n2)c1.Cl [GW784041]", "UNITS_SYMBOL": "%", "%Inh": 0}
{"COMPOUND": "CN(C)CCOc1ccc(-c2cc(-c3ccc(Cl)c(O)c3)c(-c3ccncc3)[nH]2)cc1.Cl.Cl [SB-684387]", "UNITS_SYMBOL": "%", "%Inh": 52}
{"COMPOUND": "Cl.Cl.NC(CNC(=O)c1cc(Br)c(-c2ccnc3[nH]ccc23)s1)c1ccccc1 (stereo not drawn) [GSK1322949]", "UNITS_SYMBOL": "%", "%Inh": 29}
